Values compiled from patent US9999218B2.

- Tested on: adult bed bugs
- Run parameters: […] neem oil + […] named solvent in isopropanol; 4 h dried in highly-ventilated room; observed until 14 days
- From the text: This example illustrates the dry residual pesticidal activity of formulations including neem oil and various organic solvents including alcohols, ketones, esters and carboxylic acids. […] The percent by weight of each solvent was varied to ensure a consistent molar quantity of solvent in each solution. […] Adult bed bugs were counted dead if they were unresponsive when stimulated.
Below, each of the compounds is paired with its reported Max. Mortality value.
Property: Max. Mortality (%)

Compound	Endpoint result
Cc1ccc(C=O)cc1	50
Cc1cc(C(=O)O)ccc1O [4-Hydroxy-3-methyl benzoic acid]	60
CCCCC(O)CC (stereo not shown)	30
Cc1ccc(C(C)O)cc1 (stereo not shown)	100
Oc1ccccc1	100
CCOC(=O)c1ccccc1 [Ethyl benzoate]	100
O=C(c1ccccc1)C1CCCCC1	90
Cc1ccccc1	50
CCCCCCC(CO)CCCC (stereo not shown)	100
C/C=C/c1ccc(OC)cc1 [Trans-anethole]	100
CCCCC(=O)c1ccc(O)cc1 [4′-Hydroxyvalerophenone]	70
CCCCCCC(C)O (stereo not shown)	100
CCCCCCCCCO	100
CC(C)(O)c1ccccc1	100
CC(=O)c1ccccc1O [2′-Hydroxyacetophenone]	100
CC(=O)c1ccc(O)cc1 [4′-Hydroxyacetophenone]	50
CCCCCCCCC(CO)CCCCCC (stereo not shown)	100
CCCCOc1ccccc1	100
COCc1ccccc1	60
